test system: HaCat; assay: Cytotoxic Profiling of Annotated Libraries Using Quantitative High-Throughput Screening (AID 1296008); conditions: Five cell lines viability, CellTiter-Glo ATP luminescence, 48-72 h; stronger effect = lower value; note: % is set by controls: 0 for no effect and ±100 for the full control effect; nearly all actives have a fitted effect of over 60% in size
Results filed as inconclusive are left out.
value-kind: max response (%)
Express your answer in %, writing the number without its unit.

IN: Form: Entry = `CN(C)C(=O)Nc1ccc(Cl)c(Cl)c1` | System = HaCat | max response = ____
OUT: -27.1

IN: Record Cc1cc2c(OCC(CNC(C)(C)C)OC(=O)c3ccccc3)cccc2[nH]1 (stereo not drawn) : what is its max response with HaCat?
OUT: 1.54

IN: Give recorded max response with HaCat for the following molecule: `CC(=O)NCCCCCC(=O)O`
OUT: -2.92

IN: Lab request: please report max response under test system HaCat for `CN1CCN(C2=Nc3cc(F)ccc3Cc3ccccc32)CC1`
OUT: -42.8

IN: Look up max response with HaCat for this molecule: `O=C(Nc1ncc([N+](=O)[O-])s1)c1cccs1`
OUT: -23.3

IN: For HaCat, provide max response of `CC(=O)Nc1ncc([N+](=O)[O-])s1` please.
OUT: 4.2

IN: Please tell me: max response of `CC(=O)NC(=O)c1ccccc1O` , system HaCat?
OUT: -6.77

IN: # get_value(readout= max response, system= HaCat) for `CN1CCN(C2=Nc3ccccc3Sc3ccc(Cl)cc32)CC1`
OUT: -2.52

IN: Item `Nc1nc(-c2ccccc2)c(Br)c(=O)[nH]1` with HaCat - max response?
OUT: -7.63

IN: Lab note: need max response for `CCCCCCCCCCCCCCCC(=O)O` on HaCat, anyone have it?
OUT: -1.81

IN: Query max response on HaCat for `CC(C)Cn1cnc2c1c(=O)n(C)c(=O)n2C`
OUT: -0.147

IN: # query: max response | item `COc1cc(C(=S)N2CCOCC2)ccc1O` | system: HaCat
OUT: -11.5

IN: Could you share what max response was measured for `O=C(O)CCC(=O)Nc1ccc(S(=O)(=O)Nc2nccs2)cc1` , tested on HaCat?
OUT: -28.4

IN: Notebook: pull reported max response for HaCat, entry Cc1cc(C)cc(OCC2CNC(=O)O2)c1 (stereo not drawn)
OUT: -13.4

IN: Under HaCat: max response value of `NCc1ccccc1Sc1ccccc1CO` ?
OUT: -3.87

IN: So what max response did CC(CNC1CCCCC1)OC(=O)c1ccccc1 (stereo not drawn) get with HaCat?
OUT: -18.5

IN: Lookup: max response / HaCat / `NS(=O)(=O)c1ccc(Cl)c(S(N)(=O)=O)c1`
OUT: -3.23

IN: Report max response for `C=CCN1CCc2nc(N)sc2CC1` tested on HaCat.
OUT: -12.6

IN: Form field: max response recorded for `CCOC(=O)Nc1ccc2c(c1)N(C(=O)CCN1CCOCC1)c1ccccc1S2` with HaCat (enter value)
OUT: -10.7

IN: Provide the documented max response with HaCat as the system for `NC(=S)N/N=C/c1cccnc1`
OUT: 1.46

IN: Find the measured max response: item `CCCCCCCCCCCCSCCOCCO` , target or system HaCat.
OUT: 0.693

IN: Checklist item: max response tested on HaCat, entry `NCCNc1cccc2ccccc12` , value?
OUT: -24.9

IN: Short answer please: max response, HaCat, entry `CC(=O)O[C@]1(C(C)=O)CC[C@H]2[C@@H]3C=C(C)C4=CC(=O)CC[C@]4(C)[C@H]3CC[C@@]21C`
OUT: -4.96

IN: Lab note: need max response with HaCat for entry `CCNC(=O)/C=C/c1cccc(Br)c1` , please look it up.
OUT: 0.498

IN: Lab note: need max response for `CCCCN1C[C@H](O)[C@@H](O)[C@H](O)[C@H]1CO` on HaCat, anyone have it?
OUT: -19.6

IN: Return max response measured with HaCat given this molecule: `CNCCc1ccccn1`
OUT: -8.27

IN: What max response appears in the records for this molecule with HaCat? `O=[N+]([O-])c1ccc(/C=N\O)o1`
OUT: 1.07

IN: Find the measured max response: item `N[C@H](C(=O)O)[C@@H](O)c1ccc(O)c(O)c1` , target or system HaCat.
OUT: 1.85

---

tested on: CP185; test: qHTS profiling for inhibitors of Plasmodium falciparum proliferation (AID 504749); note: nearly all actives have a fitted effect of over 60% in size; note: potency is the fitted concentration of half-maximal effect; details: P. falciparum in erythrocytes, SYBR Green DNA, 72 h; series mostly up to 28.7 µM
Inconclusive results are not listed. Activity calls are given as the source filed them. The call rests on the fitted dose curve; in most records, active means well fitted inhibition curve with a large enough effect; inconclusive means small, poorly fitted or top-dose-only effect; inactive means flat fitted curve, though single readings scatter.
value-kind: Potency

// below: answered compounds
>  <compound>
N=C(N)N1CCc2ccccc2C1

>  <value-kind>
Potency

>  <measured>
inactive

$$$$
>  <compound>
COc1ccc(/C=N/NC(=O)c2ccncc2)cc1OC

>  <value-kind>
Potency

>  <measured>
inactive

$$$$
>  <compound>
Cc1ncc(CO)c(C=O)c1O

>  <value-kind>
Potency

>  <measured>
inactive

$$$$
>  <compound>
CC1(COc2ccc(CC3SC(=O)NC3=O)cc2)CCCCC1 (configuration not stated)

>  <value-kind>
Potency

>  <measured>
inactive

$$$$
>  <compound>
COc1cc(C(=O)NCc2ccc(OCCN(C)C)cc2)cc(OC)c1OC

>  <value-kind>
Potency

>  <measured>
inactive

$$$$
>  <compound>
O=C(O)P(=O)(O)O

>  <value-kind>
Potency

>  <measured>
inactive

$$$$
>  <compound>
CCNC(=O)NCc1cccc(Cl)c1

>  <value-kind>
Potency

>  <measured>
inactive

$$$$
>  <compound>
CN(C)CCC[C@@]1(c2ccc(F)cc2)OCc2cc(C#N)ccc21

>  <value-kind>
Potency

>  <measured>
inactive

$$$$

IN: Item under review: `CC(C)Nc1cccnc1N1CCN(C(=O)c2cc3cc(NS(C)(=O)=O)ccc3[nH]2)CC1` . Reported Potency?
OUT: inactive

IN: Please look up its Potency: `CCCCNC(=O)NS(=O)(=O)c1ccc(N)cc1`
OUT: inactive

IN: Need Potency, item C[N+]1(CC2COC(c3ccccc3)(C3CCCCC3)O2)CCCCC1 (configuration not stated)
OUT: 5.01 µM (active)

---

assay: qHTS profiling for inhibitors of Plasmodium falciparum proliferation (AID 504749); note: nearly all actives have a fitted effect of over 60% in size;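 for activity, negative = inhibition: 0% = DMSO vehicle and full inhibition = artemisinin control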; conditions: P. falciparum in erythrocytes, SYBR Green DNA, 72 h; at 28.7 µM (top of the series); parasite line B
Results filed as inconclusive are left out.
value-kind: activity, negative = inhibition (%)
Give the value in % but do not write % after it.

IN: Would you mind telling me what activity, negative = inhibition value was observed for `N#CCC(=O)NN` ?
OUT: 7.8

IN: Return reported activity, negative = inhibition; argument: `CCCCCCCCCCCCSCCOCCO`
OUT: 14.6

IN: Quick check: activity, negative = inhibition of `Nc1ccc(S(=O)(=O)Nc2cnc3ccccc3n2)cc1` ?
OUT: -11.6

IN: Requested read-out: activity, negative = inhibition. Entry: `COc1ccc(CN(CCN(C)C)c2ncccn2)cc1`
OUT: 5.48

IN: Which activity, negative = inhibition value belongs to CCC(C(=O)OCCOCCN(CC)CC)c1ccccc1 (stereo not drawn) ?
OUT: 5.27

IN: Endpoint output: activity, negative = inhibition of `Cc1ccc(S(=O)(=O)NC(=O)NC2CCCC2)cc1` . Value?
OUT: 9.92

IN: For the compound shown here, `Cc1cccc(C)c1NC(=O)CN1CCCCCC1` , give the reported activity, negative = inhibition.
OUT: 4.72

IN: Look up activity, negative = inhibition for this compound: `C#C[C@]1(O)CC[C@H]2[C@@H]3CCC4=CC(=O)CC[C@@H]4[C@H]3CC[C@@]21CC`
OUT: -6.83

IN: Which activity, negative = inhibition value is on record for `O=C(O)c1ccc(S(=O)(=O)N(Cl)Cl)cc1` ?
OUT: 5.75

IN: Report activity, negative = inhibition for `C/C=C/c1ccc(O)c(OC)c1` please.
OUT: -10.3

IN: Look up activity, negative = inhibition for this compound: `COc1cc(O)c(C(=O)c2ccccc2)cc1S(=O)(=O)O`
OUT: 4.93

IN: Which activity, negative = inhibition value is on record for CC(C)CCCC(C)N (stereo not drawn) ?
OUT: -1.67

IN: Param item = `Cc1cc(-c2ccccc2)nnc1NCCN1CCOCC1` ; retrieve measured activity, negative = inhibition.
OUT: 8.72

---

Would you kindly list max response for each of these compounds?
tested on: HaCat; experiment: Cytotoxic Profiling of Annotated Libraries Using Quantitative High-Throughput Screening (AID 1296008); details: Five cell lines viability, CellTiter-Glo ATP luminescence, 48-72 h; stronger effect = lower value; note: % is set by controls: 0 for no effect and ±100 for the full control effect; nearly all actives have a fitted effect of over 60% in size
Records with an inconclusive call do not appear.
State the answer as a number, implicitly in %.

IN: Consider the compound shown here: `O=S(=O)(O)c1ccc(O)cc1` What is its recorded max response?
OUT: -3.34

IN: Return reported max response; argument: `CCCCCCCCCCCCCC(=O)OC(C)C`
OUT: -4.71

IN: # input compound: `C=C[C@H]1CN2CC[C@H]1C[C@H]2[C@H](O)c1ccnc2ccc(OC)cc12` ; wanted: its max response
OUT: -3.94

IN: // query max response value for entry `C/C=C/C=N/NC(=O)c1ccncc1`
OUT: 0.247

IN: Endpoint output: max response of `CC[C@]12CCCN3CCc4c(n(c5ccccc45)C(=O)C1)[C@@H]32` . Value?
OUT: -22.7
